Data provenance: patent US20240150377A1

# measurementTarget: CFTR (Homo sapiens)
# protocolNotes: Membrane potential dye, Enteroid Assay A
# Format: cell-based
# testSettings: Table 6; chloride transport as % of triple combination control (Enteroid Assay A)
# Procedure: Base medium (ADF+++) consisted of Advanced DMEM/Ham's F12, 2 mM Glutamax, 10 mM HEPES, […] penicillin/streptomycin. […] Enteroid cells were incubated with test compound in IEMM for 18-24 hours at 37° C., 95% humidity and 5% CO2. […] Chloride transport was initiated by addition of Chloride Free Dye Stimulation Solution and the fluorescence signal was read for 15 min. […]
measuredMetric: Ent. A Max Activity

INSERT INTO measurements (compound, measvalue) VALUES
  ('Cc1cccc(C)c1-c1cc2nc(n1)NS(=O)(=O)c1cccc(c1)C(=O)N(CC1CCCC1)[C@H](CC(C)C)CO2', '+++ (+++ is >60%)'),
  ('Cc1cccc(C)c1-c1cc2nc(n1)NS(=O)(=O)c1cccc(c1)C(=O)N(Cc1ncccn1)[C@H](CC(C)C)CO2', '+++ (+++ is >60%)'),
  ('Cc1cccc(C)c1-c1cc2nc(n1)NS(=O)(=O)c1cccc(c1)C(=O)N(CC1CCN(C)CC1)[C@H](CC(C)(C)C)CO2', '+++ (+++ is >60%)'),
  ('Cc1cccc(C)c1-c1cc2nc(n1)NS(=O)(=O)c1cccc(c1)C(=O)N(Cc1ccc(N3CCC(C)CC3)nc1)[C@H](CC(C)C)CO2', '+++ (+++ is >60%)'),
  ('Cc1cccc(C)c1-c1cc2nc(n1)NS(=O)(=O)c1cccc(c1)C(=O)N(CC1CCCN1C(=O)OC(C)(C)C)[C@H](CC(C)C)CO2 (stereo partly drawn)', '+++ (+++ is >60%)'),
  ('Cc1cccc(C)c1-c1cc2nc(n1)NS(=O)(=O)c1cccc(c1)C(=O)N(Cc1ccc[nH]c1=O)[C@H](CC(C)C)CO2', '+++ (+++ is >60%)');

// fetch Ent. A Max Activity; item: `Cc1cccc(C)c1-c1cc2nc(n1)NS(=O)(=O)c1cccc(c1)C(=O)N(C[C@@H](O)CO)[C@H](CC(C)C)CO2` ; system: CFTR (Homo sapiens)
+++ (+++ is >60%)

// fetch Ent. A Max Activity; item: `Cc1cccc(C)c1-c1cc2nc(n1)NS(=O)(=O)c1cccc(c1)C(=O)N(Cc1cc3n(n1)CCNC3=O)[C@H](CC(C)C)CO2` ; system: CFTR (Homo sapiens)
+++ (+++ is >60%)

====

# measurementTarget: CFTR (Homo sapiens, UniProt P13569, DEL508-508)
# Construct: endogenous in cells; host or cells: primary human bronchial epithelial cells from CF subjects (F508del/MF-HBE), differentiated at air-liquid interface
# Sequence (P13569 with tags, fused parts or gaps DEL508-508): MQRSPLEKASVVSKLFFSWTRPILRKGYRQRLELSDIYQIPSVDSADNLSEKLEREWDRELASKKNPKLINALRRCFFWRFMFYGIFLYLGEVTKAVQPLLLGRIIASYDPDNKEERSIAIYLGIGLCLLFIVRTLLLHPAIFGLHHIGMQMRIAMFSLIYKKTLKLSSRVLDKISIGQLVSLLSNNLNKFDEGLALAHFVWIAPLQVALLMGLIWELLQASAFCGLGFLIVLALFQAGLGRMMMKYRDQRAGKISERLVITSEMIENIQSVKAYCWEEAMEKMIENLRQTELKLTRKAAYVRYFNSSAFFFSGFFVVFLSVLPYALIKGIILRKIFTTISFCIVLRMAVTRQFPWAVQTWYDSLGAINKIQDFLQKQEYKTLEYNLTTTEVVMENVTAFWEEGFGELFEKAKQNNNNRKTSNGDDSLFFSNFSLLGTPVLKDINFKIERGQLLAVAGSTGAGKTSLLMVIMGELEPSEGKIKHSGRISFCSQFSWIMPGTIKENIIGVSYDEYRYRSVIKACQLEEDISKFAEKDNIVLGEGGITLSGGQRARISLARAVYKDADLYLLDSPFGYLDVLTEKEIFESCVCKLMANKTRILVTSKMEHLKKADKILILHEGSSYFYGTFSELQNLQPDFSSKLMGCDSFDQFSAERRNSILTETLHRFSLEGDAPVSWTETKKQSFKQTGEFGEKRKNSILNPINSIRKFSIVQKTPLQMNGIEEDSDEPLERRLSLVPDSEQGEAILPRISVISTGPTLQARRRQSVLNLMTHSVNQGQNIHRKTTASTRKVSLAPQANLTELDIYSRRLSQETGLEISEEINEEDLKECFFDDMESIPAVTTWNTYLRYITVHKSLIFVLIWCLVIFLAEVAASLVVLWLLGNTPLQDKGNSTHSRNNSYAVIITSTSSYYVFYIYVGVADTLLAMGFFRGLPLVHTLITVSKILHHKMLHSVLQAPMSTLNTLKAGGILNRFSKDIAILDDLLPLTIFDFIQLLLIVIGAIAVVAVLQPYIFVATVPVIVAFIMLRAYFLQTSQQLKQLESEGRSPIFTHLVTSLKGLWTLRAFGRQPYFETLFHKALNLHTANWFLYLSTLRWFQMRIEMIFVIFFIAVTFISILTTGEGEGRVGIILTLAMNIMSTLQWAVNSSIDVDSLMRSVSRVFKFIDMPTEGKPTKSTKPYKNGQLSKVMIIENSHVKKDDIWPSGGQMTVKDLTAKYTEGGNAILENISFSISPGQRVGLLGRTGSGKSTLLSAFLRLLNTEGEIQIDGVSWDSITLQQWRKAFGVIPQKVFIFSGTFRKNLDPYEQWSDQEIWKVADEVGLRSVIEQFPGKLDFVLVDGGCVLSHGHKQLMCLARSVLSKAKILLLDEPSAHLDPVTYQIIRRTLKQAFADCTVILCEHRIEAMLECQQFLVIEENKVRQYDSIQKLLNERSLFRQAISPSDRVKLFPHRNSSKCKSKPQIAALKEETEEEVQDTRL
# protocolNotes: HBE assay: Ussing chamber assay of CFTR-mediated short-circuit currents
# Format: cell-based
# testSettings: Table 10; read-out: HBE EC50
Known EC50 of a selection of molecules

The following molecules have reported results that may help.
INSERT INTO measurements (molecule, measvalue) VALUES
  ('Cc1cccc(C)c1-c1cc2nc(n1)NS(=O)(=O)c1cccc(c1)C(=O)N(Cc1cccc(N(C)C)n1)[C@H](CC(C)(C)C)CO2 [Compound 491]', '< 1000 nM'),
  ('Cc1cccc(C)c1-c1cc2nc(n1)NS(=O)(=O)c1cccc(c1)C(=O)N(Cc1ccc(OCC(=O)N(C)C)cc1)[C@H](CC(C)(C)C)CO2 [Compound 779]', '< 1000 nM'),
  ('Cc1cccc(C)c1-c1cc2nc(n1)NS(=O)(=O)c1cccc(c1)C(=O)N(CC1CCC(O)(C(F)(F)F)CC1)[C@H](CC(C)(C)C)CO2 (stereo partly drawn) [Compound 905]', '< 1000 nM');

// output EC50; input Cc1cccc(C)c1-c1cc2nc(n1)NS(=O)(=O)c1cccc(c1)C(=O)N(Cc1ccc(-c3c(C)n[nH]c3C)cn1)[C@H](CC(C)(C)C)CO2 [Compound 298] ; system CFTR (Homo sapiens, UniProt P13569, DEL508-508)
1000 to 3000 nM

Return reported EC50 for target or system CFTR (Homo sapiens, UniProt P13569, DEL508-508), item Cc1ccc2ccccc2c1-c1cc2nc(n1)NS(=O)(=O)c1cccc(c1)C(=O)N(Cc1ccc(N3CCOCC3)cn1)[C@H](CC(C)(C)C)CO2 [Compound 1075] .
< 1000 nM

Recall the reported EC50 of COCC1CCCN1c1cccc(CN2C(=O)c3cccc(c3)S(=O)(=O)Nc3nc(cc(-c4c(C)cccc4C)n3)OC[C@H]2CC(C)(C)C)n1 (stereo partly drawn) [Compound 129] when tested on CFTR (Homo sapiens, UniProt P13569, DEL508-508).
< 1000 nM

====

# measurementTarget: CFTR (Homo sapiens, UniProt P13569, DEL508-508)
# Construct: endogenous in cells; host or cells: primary human bronchial epithelial cells from CF subjects (F508del/MF-HBE), differentiated at air-liquid interface
# protocolNotes: HBE2 assay: Ussing chamber assay of CFTR-mediated short-circuit currents
# Assay type: cell-based
# testSettings: 3 μM corrector; F508del/MF-HBE cells; with 44 nM potentiator, 18-24 hours, 20% human serum
measuredMetric: HBE2 Activity at 3 μM (%)

Recorded results for 5 molecules are shown here.
INSERT INTO measurements (molecule, measuredmetric, measvalue) VALUES
  ('Cc1cccc(C)c1-c1cc2nc(n1)NS(=O)(=O)c1cccc(c1)C(=O)N(Cc1cncc(N(C)C3CCC3)n1)[C@H](C1CC(C)(C)C1)CO2 (stereo in doubt) [Compound 1895]', 'HBE2 Activity at 3 μM (%)', '++ (++ is 30-60%)'),
  ('Cc1cccc(C)c1-c1cc2nc(n1)NS(=O)(=O)c1cccc(c1)C(=O)N(Cc1cncc(C3CCC3)n1)[C@H](CCC(C)(C)C)CO2', 'HBE2 Activity at 3 μM (%)', '+++ (+++ is >60+)'),
  ('Cc1cccc(C)c1-c1cc2nc(n1)NS(=O)(=O)c1cccc(c1)C(=O)N(Cc1cncc(N3CCCC3C(C)C)n1)[C@H](CC1CCCCC1)CO2 (some centres unmarked)', 'HBE2 Activity at 3 μM (%)', '+++ (+++ is >60+)'),
  ('COCCN(C)c1cncc(CN2C(=O)c3cccc(c3)S(=O)(=O)Nc3nc(cc(-c4c(C)cccc4C)n3)OC[C@H]2CCC(C)(C)C)n1', 'HBE2 Activity at 3 μM (%)', '+++ (+++ is >60+)'),
  ('Cc1cccc(C)c1-c1cc2nc(n1)NS(=O)(=O)c1cccc(c1)C(=O)N(Cc1cncc(N3CCC34CCC4)n1)[C@H](CCC(C)(C)C)CO2', 'HBE2 Activity at 3 μM (%)', '+++ (+++ is >60+)');

Kindly indicate its recorded HBE2 Activity at 3 μM (%). Item: `COC[C@@H]1CCN1c1cncc(CN2C(=O)c3cccc(c3)S(=O)(=O)Nc3nc(cc(-c4c(C)cccc4C)n3)OC[C@H]2CCC(C)(C)C)n1`
+++ (+++ is >60+)

Give the value of HBE2 Activity at 3 μM (%) reported for the following: `Cc1cc(C)c(-c2cc3nc(n2)NS(=O)(=O)c2cccc(c2)C(=O)N(Cc2cncc(N(C)C4CCC4)n2)[C@H](CC(C)(C)C)CO3)c(C)c1`
+++ (+++ is >60+)

Output measured HBE2 Activity at 3 μM (%) for this item: `CC[C@H]1CCN1c1cncc(CN2C(=O)c3cccc(c3)S(=O)(=O)Nc3nc(cc(-c4c(C)cccc4C)n3)OC[C@H]2CCC(C)(C)C)n1`
+++ (+++ is >60+)

Name the recorded HBE2 Activity at 3 μM (%) of the molecule listed here: `Cc1cccc(C)c1-c1cc2nc(n1)NS(=O)(=O)c1cccc(c1)C(=O)N(Cc1cncc(N(C)C(C)C)n1)[C@H](CC1CCCCC1)CO2`
+++ (+++ is >60+)

Return reported HBE2 Activity at 3 μM (%). Input molecule: `Cc1cccc(C)c1-c1cc2nc(n1)NS(=O)(=O)c1cccc(c1)C(=O)N(Cc1cncc(N3CC4(CCC4)[C@H]3C(C)C)n1)[C@H](CC(C)(C)C)CO2`
+++ (+++ is >60+)

Assign HBE2 Activity at 3 μM (%) to the following record: Cc1cccc(C)c1-c1cc2nc(n1)NS(=O)(=O)c1cccc(c1)C(=O)N(Cc1cncc(N(C)C3CCC3)n1)[C@@H]1CCN(CC(C)(C)C)CC1O2 (stereo in doubt)
++ (++ is 30-60%)

====

# measurementTarget: UniProtKB P13569
# protocolNotes: Membrane potential dye, Enteroid Assay B
# Type: cell-based
# testSettings: Table 7; human enteroid cells, 18-24 hours; acute 10 μM forskolin and 300 nM ivacaftor; read-out: Ent. B EC50
pEC50: −log10 of the molar value.
compounds and their reported pEC50

Provide UniProtKB P13569 pEC50 reading for Cc1cccc(C)c1-c1cc2nc(n1)NS(=O)(=O)c1cccc(c1)C(=O)N(CCN(C)C(=O)OC(C)C)[C@H](CC(C)C)CO2 [Compound 91] .
> 6.00

Supply pEC50 measured with UniProtKB P13569 for Cc1cccc(C)c1-c1cc2nc(n1)NS(=O)(=O)c1cccc(c1)C(=O)N(CCN(C)C)[C@H](CC(C)C)CO2 [Compound 412] .
> 6.00

Provide measured pEC50 on UniProtKB P13569 for Cc1cccc(C)c1-c1cc2nc(n1)NS(=O)(=O)c1cccc(c1)C(=O)N(CCOC(F)(F)F)[C@H](CC(C)C)CO2 [Compound 1103] please.
> 6.00

Provide pEC50, tested on UniProtKB P13569, for Cc1cccc(C)c1-c1cc2nc(n1)NS(=O)(=O)c1cccc(c1)C(=O)N(CCCC(N)=O)[C@H](CC(C)C)CO2 [Compound 407] .
5.52 to 6.00

Report pEC50 on UniProtKB P13569 for this entry: COC(=O)N(C)CCN1C(=O)c2cccc(c2)S(=O)(=O)Nc2nc(cc(-c3c(C)cccc3C)n2)OC[C@H]1CC(C)C [Compound 410]
> 6.00
